Cited source: PubChem BioAssay (EPA / NIEHS)

assay: ATG_PXRE_CIS: Attagene CIS-FACTORIAL HepG2 Assay for human Pregnane X Receptor Element (PXRE) (AID 2282957); settings: HepG2 Attagene CIS-FACTORIAL PXRE reporter, mRNA; actives raise or lower the signal
Activity calls are given as the source filed them. How the source made its calls: active means hit-call score of the fitted dose curve at least 0.9, where 1 is the maximum; inactive means score below 0.9.
Response enum: class 1 = active, class 0 = inactive

Data request: Record request — test call for O=S(=O)(O)c1ccc(Nc2nc(Nc3ccc(C=Cc4ccc(Nc5nc(Nc6ccc(S(=O)(=O)O)cc6)nc(N(CCO)CCO)n5)cc4S(=O)(=O)O)c(S(=O)(=O)O)c3)nc(N(CCO)CCO)n2)cc1
Data returned: class 1

Data request: Record request — test call for CC=CC(=O)OCC(C)C
Data returned: class 0

Data request: Record request — test call for CCCCCCC=O
Data returned: class 0

Data request: Record request — test call for CC(C)(CO)C(O)C(=O)NCCCO (stereo not drawn)
Data returned: class 0

Data request: Record request — test call for O=C(OCc1ccccc1)c1ccc(O)cc1
Data returned: class 1

Data request: Record request — test call for C=C(C)C(=O)OCC(O)COc1ccc(C(C)(C)c2ccc(OCC(O)COC(=O)C(=C)C)cc2)cc1 (stereo not drawn)
Data returned: class 1

Data request: Record request — test call for CCCCOC(=O)C(C)CC (stereo not drawn)
Data returned: class 1

Data request: Record request — test call for COc1cc(O)c(C(=O)c2ccccc2)cc1S(=O)(=O)O
Data returned: class 0

Data request: Record request — test call for CCOB(OCC)OCC
Data returned: class 0

Data request: Record request — test call for N#CC1(N)CCCCC1
Data returned: class 0

Data request: Record request — test call for Cc1ccccc1CCO
Data returned: class 1

Data request: Record request — test call for CCCCCCCCC(CO)CCCCCC (stereo not drawn)
Data returned: class 0

Data request: Record request — test call for CC(C)(CO)COC(=O)C(C)(C)CO
Data returned: class 0
